# protocol summary: observed phase transition temperature of phospholipids
# Type: physicochemical
# reported conditions: phospholipid
Reported values of observed phase transition temperature for individual entries
Response body: numeric value in °C, unit text excluded.

CCCCCCCCCCCCCC(=O)OCC(COP(=O)(O)OCC(N)C(=O)O)OC(=O)CCCCCCCCCCCCC (stereo not drawn) | 38
CCCCCCCCCCCCCCCC(=O)OC[C@H](COP(=O)([O-])OCC[N+](C)(C)C)OC(=O)CCCCCCCCCCCCCCC | 41.4

Consider the additional compound presented here.
Field observed phase transition temperature (entry CCCCCCCCCCCCCCCCCC(=O)OCC(COP(=O)([O-])OCC[N+](C)(C)C)OC(=O)CCCCCCCCCCCCCCCCC (stereo not drawn) ) reads 54.9
